Experiment: Viability qHTS for spleen associated tyrosine kinase inhibitor (SYKi) drug resistant MV4-11 cells (AID 1963824); also: nearly all actives have a fitted effect of over 35% in size
Details: SYKi-resistant MV4-11 viability, CellTiter-Glo, 72 h; series mostly up to 45 µM
Experimental: Department of Medicine, Hematology/Oncology University Hospital Frankfurt, Germany. Trials have shown promising clinical activity of the selective SYK inhibitor entospletinib in patients with high expressing HOXA9/MEIS1 acute leukemias. […] 7; Detection; Luminescence; ViewLux plate reader (PerkinElmer). […] 1. Quantitative high-throughput screening (qHTS) of small molecule compounds was conducted on drug resistant SYKi MV4-11 cell line. […] 7. Luminescence was measured on a ViewLux plate reader (PerkinElmer).
Results filed as inconclusive are left out. Activity calls are given as the source filed them. Calls follow the shape of the dose curve; as a rule, active = well fitted cell-killing curve with a large enough effect; inconclusive = small, poorly fitted or top-dose-only effect, or effect the other way; inactive = no such curve, though single readings can be large or run the other way.
The reply should name one outcome from Y = active, N = inactive

Some solved entries appear below for comparison.
O=C(Nc1cnccc1Cl)N1CCN(Cc2ccc3c(c2)OC(F)(F)O3)CC1
Y
O=C(NC(Cc1cc(=O)[nH]c2ccccc12)C(=O)O)c1ccc(Cl)cc1 (stereo unspecified)
N
NC(N)=NS(=O)(=O)c1ccc(N)cc1
N

Query block: For this compound, state the assay outcome: `Cc1ccc(CN2CCNCC2)cc1NC(=O)CNc1ccc(F)c(F)c1`
Result block: N

Query block: For this compound, state the assay outcome: `O=C(OCCN1CCOCC1)c1cccnc1Nc1cccc(C(F)(F)F)c1`
Result block: N

Query block: For this compound, state the assay outcome: `COc1cc2c(cc1OC)-c1cc(=Nc3c(C)cc(C)cc3C)n(C)c(=O)n1CC2`
Result block: Y

---

test: Quantitative highthroughput screen to assess conditional lethalithy of P12 Ichikawa cells grown in RPMI1640 with untreated serum (RPMI+s) (AID 1963881); settings: ATP luminescence, 48 h; viability; series mostly up to 45.8 µM; also: nearly all actives have a fitted effect of over 35% in size
Records with an inconclusive call do not appear. Activity calls are given as the source filed them. Calls follow the shape of the dose curve; as a rule, active = well fitted cell-killing curve with a large enough effect; inconclusive = small, poorly fitted or top-dose-only effect; inactive = flat fitted curve, though single readings scatter.
The reply should name one outcome from active, inactive

Some solved entries appear below for comparison.
N[C@@]1(C(=O)O)CS(=O)(=O)[C@H]2[C@H](C(=O)O)[C@H]21
inactive
COc1ccc2nc(S(=O)Cc3ncc(C)c(OC)c3C)[nH]c2c1 (configuration not stated)
inactive
O=C(O)CSCC(=O)NC1CCSC1=O (configuration not stated)
inactive
CC(C)(C)c1cc(NC(=O)Nc2ccc(-c3cn4c(n3)sc3cc(OCCN5CCOCC5)ccc34)cc2)no1
inactive
COc1cccc2c1C(=O)c1c(O)c3c(c(O)c1C2=O)C[C@@](O)(C(=O)CO)C[C@@H]3O[C@H]1C[C@H](N)[C@H](OC2CCCCO2)[C@H](C)O1 (some centres not stated)
inactive
CC(C)c1noc(N2CCC(COc3ccc(-c4ccc(S(C)(=O)=O)cc4)nc3)CC2)n1
inactive
COc1ccc(-c2cc3nccn3c(Nc3ncccc3C(N)=O)n2)cc1OC
inactive
Cc1cc(Nc2ncnc3ccc(-c4ccc(CNCCS(C)(=O)=O)o4)cc23)ccc1Oc1ccn2ncnc2c1
active
C=C1[C@H](n2cnc3c(=O)[nH]c(N)nc32)C[C@H](O)[C@H]1CO
active
N=c1ccn2c(n1)O[C@H]1[C@@H](O)[C@@H](CO)O[C@H]12
active

Query block: For this molecule, state the assay outcome: `C#Cc1cccc(Nc2ncnc3cc(OC)c(OCCCCCCC(=O)NO)cc23)c1`
Result block: active

Query block: For this molecule, state the assay outcome: CC=C1C2C=C(C)CC1(N)c1ccc(=O)[nH]c1C2 (configuration not stated)
Result block: inactive

Query block: For this molecule, state the assay outcome: `CC1(C)SCCN(S(=O)(=O)c2ccc(OCC#CCO)cc2)[C@@H]1C(=O)NO`
Result block: inactive

Query block: For this molecule, state the assay outcome: `CNC(=O)c1ccc(Nc2ncc(C(F)(F)F)c(NCc3nccnc3N(C)S(C)(=O)=O)n2)cc1`
Result block: inactive

Query block: For this molecule, state the assay outcome: `COc1cc(NCc2ccc3nc(N)nc(N)c3c2C)cc(OC)c1OC`
Result block: active

Query block: For this molecule, state the assay outcome: CC(C(C)N1CC(=O)NC(=O)C1)N1CC(=O)NC(=O)C1 (configuration not stated)
Result block: active
